Data credit: ChEMBL document CHEMBL1144710

- assay target: Protein arginine N-methyltransferase 1 (Homo sapiens)
- assay overview: Inhibition of human recombinant PRMT1 assessed as nuclear ribonucleoprotein Npl3p methylation at 100 uM
Calls of active or inactive are those of the source. The calls are words filed in the database; no cut-off is given here.
Possible outcomes: active, inactive

structure smiles	assigned label
O=C1/C(=C/c2cc(Br)c(O)c(Br)c2)COC/C1=C\c1cc(Br)c(O)c(Br)c1	active
O=C(/C=C/c1c(Br)cc(O)cc1Br)/C=C/c1c(Br)cc(O)cc1Br	active
O=C(/C=C/c1ccc(O)c(Br)c1)c1cc(Br)c(O)c(Br)c1	inactive
O=C1/C(=C/c2ccc(O)c(Br)c2)CCCC/C1=C\c1ccc(O)c(Br)c1	inactive
O=C(Nc1cc(Br)c(O)c(Br)c1)c1cccc(C(=O)Nc2cc(Br)c(O)c(Br)c2)c1	active
O=C(/C=C/c1cc(Br)c(O)c(Br)c1)c1ccc(C(=O)/C=C/c2cc(Br)c(O)c(Br)c2)cc1	active
O=C(/C=C/c1ccc(O)c(Br)c1)c1cccc(C(=O)/C=C/c2ccc(O)c(Br)c2)c1	inactive

---

Entries and their inhibition values follow.
- assay target: Protein arginine N-methyltransferase 1 (Homo sapiens) (UniProt Q99873)
- Sequence (Q99873 whole entry, looked up): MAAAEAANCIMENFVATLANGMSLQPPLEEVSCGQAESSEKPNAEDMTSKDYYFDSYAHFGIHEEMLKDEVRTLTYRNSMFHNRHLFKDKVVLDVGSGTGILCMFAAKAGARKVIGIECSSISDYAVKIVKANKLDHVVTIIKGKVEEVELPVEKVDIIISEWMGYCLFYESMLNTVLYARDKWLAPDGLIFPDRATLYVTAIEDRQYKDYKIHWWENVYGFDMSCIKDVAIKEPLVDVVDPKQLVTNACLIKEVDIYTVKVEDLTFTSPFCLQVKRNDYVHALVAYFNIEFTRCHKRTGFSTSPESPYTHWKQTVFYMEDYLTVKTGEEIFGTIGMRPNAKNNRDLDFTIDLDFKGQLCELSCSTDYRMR
- assay overview: Inhibition of human recombinant PRMT1 assessed as histone H4 methylation at 50 uM

structure smiles	assay target	inhibition [%]
O=C(Nc1cc(Br)c(O)c(Br)c1)c1cccc(C(=O)Nc2cc(Br)c(O)c(Br)c2)c1	Protein arginine N-methyltransferase 1 (Homo sapiens) (UniProt Q99873)	38
O=C1/C(=C/c2cc(Br)c(O)c(Br)c2)CSC/C1=C\c1cc(Br)c(O)c(Br)c1	Protein arginine N-methyltransferase 1 (Homo sapiens) (UniProt Q99873)	73
O=C(/C=C/c1cc(Br)c(O)c(Br)c1)CC(=O)/C=C/c1cc(Br)c(O)c(Br)c1	Protein arginine N-methyltransferase 1 (Homo sapiens) (UniProt Q99873)	70
O=C(/C=C/c1cc(Br)c(O)c(Br)c1)c1ccc(C(=O)/C=C/c2cc(Br)c(O)c(Br)c2)cc1	Protein arginine N-methyltransferase 1 (Homo sapiens) (UniProt Q99873)	31
O=C(/C=C/c1cc(Br)c(O)c(Br)c1)c1cc(Br)c(O)c(Br)c1	Protein arginine N-methyltransferase 1 (Homo sapiens) (UniProt Q99873)	61
O=C(/C=C/c1cc(Br)c(O)c(Br)c1)/C=C/c1cc(Br)c(O)c(Br)c1	Protein arginine N-methyltransferase 1 (Homo sapiens) (UniProt Q99873)	76
O=C(/C=C/c1ccc(O)c(Br)c1)/C=C/c1cc(Br)c(O)c(Br)c1	Protein arginine N-methyltransferase 1 (Homo sapiens) (UniProt Q99873)	17
O=C(/C=C/c1cc(Br)c(O)c(Br)c1)c1cccc(C(=O)/C=C/c2cc(Br)c(O)c(Br)c2)c1	Protein arginine N-methyltransferase 1 (Homo sapiens) (UniProt Q99873)	60
CN1C/C(=C\c2cc(Br)c(O)c(Br)c2)C(=O)/C(=C/c2cc(Br)c(O)c(Br)c2)C1	Protein arginine N-methyltransferase 1 (Homo sapiens) (UniProt Q99873)	73

---

- assay target: Protein arginine N-methyltransferase 1 (Homo sapiens) (UniProt Q99873)
- assay overview: Inhibition of human recombinant PRMT1 assessed as nuclear ribonucleoprotein Npl3p methylation at 100 uM
Calls of active or inactive are those of the source. The rule behind the calls is not given here.
Possible outcomes: active, inactive

structure smiles	assigned label
O=C(Nc1cccc(NC(=O)c2cc(Br)c(O)c(Br)c2)c1)c1cc(Br)c(O)c(Br)c1	active
O=C(/C=C/c1ccc(O)c(Br)c1)/C=C/c1cc(Br)c(O)c(Br)c1	active
O=C1/C(=C/c2ccc(O)c(Br)c2)CCC/C1=C\c1ccc(O)c(Br)c1	inactive
O=C1/C(=C/c2cc(Br)c(O)c(Br)c2)CSC/C1=C\c1cc(Br)c(O)c(Br)c1	active
O=C(/C=C/c1cc(Br)c(O)c(Br)c1)CC(=O)/C=C/c1cc(Br)c(O)c(Br)c1	active
O=C1/C(=C/c2ccc(O)c(Br)c2)CN(Cc2ccccc2)C/C1=C\c1ccc(O)c(Br)c1	inactive
O=C(/C=C/c1cc(Br)c(O)c(Br)c1)c1cc(Br)c(O)c(Br)c1	inactive
O=C1/C(=C/c2cc(Br)c(O)c(Br)c2)CCC/C1=C\c1cc(Br)c(O)c(Br)c1	active
O=C1/C(=C/c2ccc(O)c(Br)c2)CSC/C1=C\c1ccc(O)c(Br)c1	inactive
O=C(/C=C/c1ccc(O)c(Br)c1)/C=C/c1ccc(O)c(Br)c1	active
O=C(/C=C/c1ccc(O)c(Br)c1)c1ccc(C(=O)/C=C/c2ccc(O)c(Br)c2)cc1	inactive
O=C(/C=C/c1ccc(O)c(Br)c1)CC(=O)/C=C/c1ccc(O)c(Br)c1	inactive
O=C(/C=C/c1c(O)cc(Br)cc1Br)/C=C/c1c(O)cc(Br)cc1Br	active
CN1C/C(=C\c2cc(Br)c(O)c(Br)c2)C(=O)/C(=C/c2cc(Br)c(O)c(Br)c2)C1	active
O=C(/C=C/c1cc(Br)c(O)c(Br)c1)c1cccc(C(=O)/C=C/c2cc(Br)c(O)c(Br)c2)c1	active
O=C1/C(=C/c2ccc(O)c(Br)c2)COC/C1=C\c1ccc(O)c(Br)c1	inactive
O=C1/C(=C/c2ccc(O)c(Br)c2)Cc2ccccc2/C1=C\c1ccc(O)c(Br)c1	inactive
O=C(Nc1ccc(NC(=O)c2cc(Br)c(O)c(Br)c2)cc1)c1cc(Br)c(O)c(Br)c1	active
O=C1OC2(c3ccccc31)c1cc(Br)c(O)c(Br)c1Oc1c2cc(Br)c(O)c1Br	active

---

- assay target: NAD-dependent protein deacetylase sirtuin-1 (Homo sapiens) (UniProt Q96EB6)
- Sequence (Q96EB6 whole entry): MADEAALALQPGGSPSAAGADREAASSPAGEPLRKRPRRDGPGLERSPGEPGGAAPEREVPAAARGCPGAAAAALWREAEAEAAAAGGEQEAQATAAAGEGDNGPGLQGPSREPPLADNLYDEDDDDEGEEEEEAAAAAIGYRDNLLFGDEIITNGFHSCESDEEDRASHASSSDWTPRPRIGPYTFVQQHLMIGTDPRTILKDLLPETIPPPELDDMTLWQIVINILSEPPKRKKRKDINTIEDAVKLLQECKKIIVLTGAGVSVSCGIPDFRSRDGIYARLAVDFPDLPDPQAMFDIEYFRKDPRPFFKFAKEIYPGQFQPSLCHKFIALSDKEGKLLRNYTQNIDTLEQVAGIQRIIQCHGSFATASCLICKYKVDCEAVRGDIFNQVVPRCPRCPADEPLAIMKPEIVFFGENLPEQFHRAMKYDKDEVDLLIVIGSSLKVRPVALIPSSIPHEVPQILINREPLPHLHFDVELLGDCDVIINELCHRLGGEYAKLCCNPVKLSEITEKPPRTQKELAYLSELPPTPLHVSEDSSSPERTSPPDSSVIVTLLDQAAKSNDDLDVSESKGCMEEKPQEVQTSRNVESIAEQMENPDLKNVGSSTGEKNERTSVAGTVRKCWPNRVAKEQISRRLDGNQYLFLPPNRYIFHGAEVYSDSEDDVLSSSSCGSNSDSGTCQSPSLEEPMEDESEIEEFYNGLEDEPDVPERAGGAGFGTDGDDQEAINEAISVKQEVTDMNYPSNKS
- assay overview: Inhibition of human SIRT1 at 25 uM
Entries and their inhibition values follow.

compound	units	inhibition
O=C(Nc1cc(Br)c(O)c(Br)c1)c1cccc(C(=O)Nc2cc(Br)c(O)c(Br)c2)c1	%	13
O=C1/C(=C/c2cc(Br)c(O)c(Br)c2)CSC/C1=C\c1cc(Br)c(O)c(Br)c1	%	54
O=C(/C=C/c1cc(Br)c(O)c(Br)c1)c1cccc(C(=O)/C=C/c2cc(Br)c(O)c(Br)c2)c1	%	73
CN1C/C(=C\c2cc(Br)c(O)c(Br)c2)C(=O)/C(=C/c2cc(Br)c(O)c(Br)c2)C1	%	63
O=C1OC2(c3ccccc31)c1cc(Br)c(O)c(Br)c1Oc1c2cc(Br)c(O)c1Br [EOSIN]	%	33
O=C1/C(=C/c2cc(Br)c(O)c(Br)c2)COC/C1=C\c1cc(Br)c(O)c(Br)c1	%	62
O=C(/C=C/c1ccc(O)c(Br)c1)/C=C/c1cc(Br)c(O)c(Br)c1	%	60
O=C(/C=C/c1cc(Br)c(O)c(Br)c1)c1cc(Br)c(O)c(Br)c1	%	35
O=C(/C=C/c1cc(Br)c(O)c(Br)c1)CC(=O)/C=C/c1cc(Br)c(O)c(Br)c1	%	52

---

- assay target: Histone-lysine N-methyltransferase SETD7 (Homo sapiens) (UniProt Q8WTS6)
- Sequence (whole entry): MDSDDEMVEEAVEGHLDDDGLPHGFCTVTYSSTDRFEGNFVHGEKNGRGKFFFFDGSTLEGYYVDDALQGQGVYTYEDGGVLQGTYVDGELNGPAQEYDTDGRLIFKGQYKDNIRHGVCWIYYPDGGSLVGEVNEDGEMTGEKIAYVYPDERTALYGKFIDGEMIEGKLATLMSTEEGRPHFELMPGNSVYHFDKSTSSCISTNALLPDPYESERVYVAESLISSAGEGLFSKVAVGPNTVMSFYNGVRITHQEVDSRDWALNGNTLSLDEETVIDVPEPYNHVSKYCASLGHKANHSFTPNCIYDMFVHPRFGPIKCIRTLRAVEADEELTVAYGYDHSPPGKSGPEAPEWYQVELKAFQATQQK
- assay overview: Inhibition of human recombinant SET7 assessed as histone H3 protein methylation at 100 uM
The source made the active and inactive calls. No cut-off for these calls is given here.
Possible outcomes: active, inactive

structure smiles	assigned label
O=C1/C(=C/c2ccc(O)c(Br)c2)CN(Cc2ccccc2)C/C1=C\c1ccc(O)c(Br)c1	inactive
O=C1/C(=C/c2ccc(O)c(Br)c2)CCC/C1=C\c1ccc(O)c(Br)c1	inactive
O=C(/C=C/c1ccc(O)c(Br)c1)/C=C/c1cc(Br)c(O)c(Br)c1	active
O=C(/C=C/c1c(O)cc(Br)cc1Br)/C=C/c1c(O)cc(Br)cc1Br	inactive
O=C(/C=C/c1cc(Br)c(O)c(Br)c1)CC(=O)/C=C/c1cc(Br)c(O)c(Br)c1	active
O=C(Nc1cc(Br)c(O)c(Br)c1)c1cccc(C(=O)Nc2cc(Br)c(O)c(Br)c2)c1	active
O=C(/C=C/c1cc(Br)c(O)c(Br)c1)c1ccc(C(=O)/C=C/c2cc(Br)c(O)c(Br)c2)cc1	active
O=C(/C=C/c1ccc(O)c(Br)c1)CC(=O)/C=C/c1ccc(O)c(Br)c1	inactive
O=C1/C(=C/c2cc(Br)c(O)c(Br)c2)CCC/C1=C\c1cc(Br)c(O)c(Br)c1	active
